// values below are reported TGI
tested on: SK-MEL-5 melanoma; assay: NCI tumour cell line growth inhibition, 48 h

{"columns": ["compound", "TGI"],
 "data": [
  ["O=C1C(Cl)C(c2cc3cc(Br)ccc3nc2Cl)N1c1ccc(F)c(Cl)c1 (stereo not drawn)", "19.8 µM"],
  ["COc1c(C)c(O)c2c(=O)cc(-c3ccccc3)oc2c1C", "> 100 µM"],
  ["c1ccc(C2(c3ccccc3)SSC3(S2)C2CC4CC(C2)CC3C4)cc1 (stereo not drawn)", "> 100 µM"],
  ["COc1cc(OC)c2c(c1-c1ccc(C)cc1)CC(C)N(Cc1ccccc1)[C@H]2C (stereo partly drawn)", "51.5 µM"],
  ["COc1ccc(/C=C2\\Oc3cc(OC(C)=O)ccc3C2=O)cc1", "> 100 µM"],
  ["CC1=NC(C)(C)[N+]([O-])=C1", "> 10 µM"],
  ["O=c1c(-c2ccccc2)c2n(c3ccccc13)CCN2", "> 100 µM"],
  ["O=C(Nc1nc(-c2ccc(Cl)cc2)cs1)c1cc(-c2ccc(Br)cc2)nc2ccc(Cl)cc12", "13.1 µM"]
]}
